# measurement target: T1, histidine-labeled human 4-1BB protein (human, UniProt Q07011 24-186)
# T1 construct: also called Human 4-1BB protein antigen (histidine-labeled); human 4-1BB protein and his tag (Acrobiosystem, #41B-H5227); not shown: histidine tag
# T1 sequence (Q07011 24-186): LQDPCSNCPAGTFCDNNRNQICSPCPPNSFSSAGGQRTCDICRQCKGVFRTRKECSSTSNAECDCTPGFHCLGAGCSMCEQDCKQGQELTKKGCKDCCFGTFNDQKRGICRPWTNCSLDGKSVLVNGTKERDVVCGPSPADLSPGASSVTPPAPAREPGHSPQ
# test details: BLI Octet RED96, AHC sensor, his-tagged antigen
readout type: kon
Remember to quote the unit after the number.

Q: I have this binder here, PR001840 (antibody, human IgG1, V domains shown, HCAb, heavy chain only, human IgG1 Fc; also called 1016P0037D2) VH: EVQLVESGGGLVQPGGSLRLSCAASGFTFSSYWMHWVRQAPGKGLVWVSRINSDGSSTSYADSVQGRFTISRDNAKNTLYLQMNSLRAEDTAVYYCVRKGSSSYYHYSIEDDWGQGTLVTVSS , and I need its recorded kon.
Result: 107000 M⁻¹ s⁻¹

Q: Subsequent entry: PR001759 (antibody, human IgG1, V domains shown, HCAb, heavy chain only, human IgG1 Fc; also called 1016P0010D7) VH: EVQLLESGGGLVQPGGSLRLSCAASGFTFSSYAMSWFRQPPETGLQWVSSIGGSGGDTYYADSVKGRFTISRDNSKNTLYLQMNSLRAEDTAVYYCAKEGSNGTDDNYYDVDVWGQGTTVTVSS
Result: 317000 M⁻¹ s⁻¹

Q: Subsequent entry: PR001836 (antibody, human IgG1, V domains shown, HCAb, heavy chain only, human IgG1 Fc; also called 1016P0020G4) VH: EVQLLESGGGLVQPGGSLRLSCAASGFIFSNFAMTWVRQPPEKGLKWVSSINGSGFNTYYTDSVKGRFTISRDNSRNTLYLQMNRLTAEDTAVYFCAKEGSSETDDHYYNVDVWGQGTTVTVSS
Result: 239000 M⁻¹ s⁻¹

Q: Subsequent entry: PR001760 (antibody, human IgG1, V domains shown, HCAb, heavy chain only, human IgG1 Fc; also called 1016P0011G10) VH: EVQLVESGGGVVQPGGSLRLSCAASGFTFSNYAMTWVRQAPEKGLEWVSSISGSGVSTYYADSVKGRFTISRDNSKNTLYLQMTRLTAEDTAVYFCAKEGSSETDDHYYNVDVWGQGTTVTVSS
Result: 268000 M⁻¹ s⁻¹

Q: Subsequent entry: PR001833 (antibody, human IgG1, V domains shown, HCAb, heavy chain only, human IgG1 Fc; also called 1016P0016F8) VH: EVQLLESGGGLVQPGGSLRLSCAASGFTFSSYAMSWVRQAPEKGLEWVSSISGSGGSTFYADSVKGRFTISRDNSKNTLYLQMNSLRAEDTAVYFCAKEGATETDDYHFNTDVWGQGTTVTVSS
Result: 216000 M⁻¹ s⁻¹

Further cases:
Q: I have this binder here, PR001838 (antibody, human IgG1, V domains shown, HCAb, heavy chain only, human IgG1 Fc; also called 1016P0030B2) VH: EVQLLESGGGLVQPGGSLRLSCAASGFTFSNYAMSWFRQPPETGLKWVSSIDGSGGDTYYADSVKGRFTISRDNSKNTLYLQMNSLRAEDTAVYYCAKEGSHGTDDSHYDVDVWGQGTTVTVSS , and I need its recorded kon.
Result: 233000 M⁻¹ s⁻¹

Q: Subsequent entry: PR001758 (antibody, human IgG1, V domains shown, HCAb, heavy chain only, human IgG1 Fc; also called 1016P0010B11) VH: EVQLLESGGGLVQLGGSLRLSCAASGFTFSRYAMTWVRQAPEKGLEWVSSISGSGDDTYYGDSVKGRFTISRDNSQNTVYLQMNSLRAEDTAVYFCAKEKAGTTGDYYYNVDVWGQGTTVTVSS
Result: 226000 M⁻¹ s⁻¹

Q: Subsequent entry: PR001830 (antibody, human IgG1, V domains shown, HCAb, heavy chain only, human IgG1 Fc; also called 1016P0014G8) VH: EVQLLESGGGLVQPGGSLRLSCTASGFTFSNYAMSWVRQAPEKGLEWVSSISGSGGSTFYADSVKGRFTISRDNSKNTLYLQMNSLRAEDTAVYFCAKEGSSETDDHYYNVDVWGQGTTVTVSS
Result: 266000 M⁻¹ s⁻¹

From: patent US20230242658A1
